Ref: patent US20250059285A1

# ASSAY_TARGET: T1, human Gal10-His (human, UniProt Q05315 2-142, limits assumed)
# T1 construct: also called hGal10-His; human Gal10-His tagged; not shown: His tag
# T1 sequence: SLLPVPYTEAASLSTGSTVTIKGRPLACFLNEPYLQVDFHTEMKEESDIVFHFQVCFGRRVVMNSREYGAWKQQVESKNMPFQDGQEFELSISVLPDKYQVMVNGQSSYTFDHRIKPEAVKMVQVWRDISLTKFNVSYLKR
# PROTOCOL_SUMMARY: SPR Biacore 3000, Fab periplasmic extract on Gal10-His-coated CM5
# Experimental: The binding properties of the Fabs (periplasmic extract) to human Gal10-His were analyzed by SPR with a Biacore 3000 instrument. For this purpose, the diluted periplasmic extract was applied on a CM5 chip coated with human Gal10-His. As a positive control, a 20 nM injection of the purified g7B07 clone in the human Fab backbone was included at the beginning and end of the run. The binding capacity of the Fab periplasmic extract was analyzed by SPR technology using a Biacore 3000. […]
PROPERTY: Fold off-rate compared to g7B07 (fold)
Give the quantity in fold, number only.

Previously resolved entries follow.
BINDER	PROPERTY	UNITS_SYMBOL	ASSAY_VALUE
g21C06 (Fab, periplasmic extract) (Fab, V domains shown, X4 library; VH assembled by inference) VH: EVQLLESGGGLVQPGGSLRLSCAASGFTFRSYDMSWVRQAPGKGLEWVSAIKRPWTYYADSVKGRFTISRDNSKNTLYLQMNSLRAEDTAVYYCATTHGIGTLGFGSWGQGTLVTVSS VL: SYELTQPLSVSVALGQTARITCDGNNIGSKSAQWYQQKPGQAPVLVIYADEYRPEGIPERFSGSNSGNTATLTISRAQAGDEADYYCQVWDGSAAVFGGGTQLTVL	Fold off-rate compared to g7B07	fold	5.2
g23E05 (Fab, periplasmic extract) (Fab, V domains shown, X6 library; VH assembled by inference) VH: EVQLLESGGGLVQPGGSLRLSCAASGFTFRSYDMSWVRQAPGKGLEWVSAIRTFEHHTYYADSVKGRFTISRDNSKNTLYLQMNSLRAEDTAVYYCATTHGIGTLGFGSWGQGTLVTVSS VL: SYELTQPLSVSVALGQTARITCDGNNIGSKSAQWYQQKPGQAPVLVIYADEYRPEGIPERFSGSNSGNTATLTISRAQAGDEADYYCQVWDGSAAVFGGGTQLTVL	Fold off-rate compared to g7B07	fold	1.8
g20H09 (Fab) (Fab, V domains shown, same VH/VL) VH: EVQLLESGGGLVQPGGSLRLSCAASGFTFRSYDMSWVRQAPGKGLEWVSAIKWHRITYYADSVKGRFTISRDNSKNTLYLQMNSLRAEDTAVYYCATTHGIGTLGFGSWGQGTLVTVSS VL: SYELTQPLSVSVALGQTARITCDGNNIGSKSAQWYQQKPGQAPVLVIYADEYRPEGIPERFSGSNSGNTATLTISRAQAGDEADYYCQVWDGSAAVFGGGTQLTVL	Fold off-rate compared to g7B07	fold	1.3
g20F04 (Fab, periplasmic extract) (Fab, V domains shown, X3 library) VH: EVQLLESGGGLVQPGGSLRLSCAASGFTFRSYDMSWVRQAPGKGLEWVSAIKHQVITYYADSVKGRFTISRDNSKNTLYLQMNSLRAEDTAVYYCATTHGIGTLGFGSWGQGTLVTVSS VL: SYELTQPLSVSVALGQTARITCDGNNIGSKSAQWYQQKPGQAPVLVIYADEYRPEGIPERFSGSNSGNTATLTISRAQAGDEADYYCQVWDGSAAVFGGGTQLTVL	Fold off-rate compared to g7B07	fold	2.3

Note: attention shifts to another entry.
Ask: # Fold off-rate compared to g7B07 lookup, item g22C03 (Fab, periplasmic extract) (Fab, V domains shown, X5 library; VH assembled by inference) VH: EVQLLESGGGLVQPGGSLRLSCAASGFTFRSYDMSWVRQAPGKGLEWVSAIKLGTFTYYADSVKGRFTISRDNSKNTLYLQMNSLRAEDTAVYYCATTHGIGTLGFGSWGQGTLVTVSS VL: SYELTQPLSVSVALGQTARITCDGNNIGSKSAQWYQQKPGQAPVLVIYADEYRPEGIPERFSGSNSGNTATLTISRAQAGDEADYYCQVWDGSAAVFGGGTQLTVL
Result: 2.9
